Molecular target: α2δ subunit of calcium channels
Conditions: read-out: Ki (nM) Control; undifferentiated (Control) IMR32 cell membranes, 10 nM [^3H]GBP, one-site binding model

SMILES_STRING	Ki [nM]
CSCC[C@H](N)C(=O)O	39

###

Target: α2δ subunit of calcium channels
Details: read-out: Ki (nM) BrdU; differentiated (BrdU) IMR32 cell membranes, 10 nM [^3H]GBP, one-site binding model

COMPOUND	UNIT_TAG	Ki
CSCC[C@H](N)C(=O)O [L-methionine]	nM	30
